Data credit: PubChem BioAssay (NCI)

# System: BT-549 breast
# Assay name: NCI tumour cell line growth inhibition, 48 h; in the data active = GI50 below about 0.43 µM; inactive = the rest
Please reply with one of these outcomes: active, inactive

I would be grateful if you could indicate the recorded call for O=C(Nc1cccc(Cl)c1)Nc1nc2ccc([N+](=O)[O-])cc2s1 . active

I would be grateful if you could indicate the recorded call for CC(=O)Nc1cccc(Nc2nc(N[C@@H](C)c3ccccc3)c3ccccc3n2)c1 . inactive

I would be grateful if you could indicate the recorded call for CS(=O)(=O)c1ccc2c(c1)c1c(n2S(=O)(=O)c2ccc(Cl)cc2)CCCC1 . inactive

I would be grateful if you could indicate the recorded call for CCOc1ccccc1NC1=C(Cl)C(=O)c2nc(C)ccc2C1=O . inactive

* * *

# Test system: SNB-75 CNS
# Assay name: NCI tumour cell line growth inhibition, 48 h
List of GI50 values.

O=C(N/N=C\c1ccc(Cl)cc1)c1ccc2nc(-c3ccc(Br)cc3)[nH]c2c1 = 1.83 µM

Query Nc1cc(-c2c[nH]c3ccc(Br)cc23)nc2cc(-c3c[nH]c4ccc(Br)cc34)nn12 on SNB-75 CNS; GI50 returned: 1.17 µM

Query CS(=O)(=O)c1ccc2c(c1)c1c(n2S(=O)(=O)c2ccc(Cl)cc2)CCCC1 on SNB-75 CNS; GI50 returned: 1.42 µM

Query CCOc1ccccc1NC1=C(Cl)C(=O)c2nc(C)ccc2C1=O on SNB-75 CNS; GI50 returned: 1.63 µM

* * *

List of GI50 values.
# Test system: COLO 205 colon
# Assay name: NCI tumour cell line growth inhibition, 48 h

Nc1cc(-c2c[nH]c3ccc(Br)cc23)nc2cc(-c3c[nH]c4ccc(Br)cc34)nn12 = 1760 nM
O=C(N/N=C\c1ccc(Cl)cc1)c1ccc2nc(-c3ccc(Br)cc3)[nH]c2c1 = 1430 nM
CCOc1ccccc1NC1=C(Cl)C(=O)c2nc(C)ccc2C1=O = 1730 nM

Could you now consider this next compound?
// field: GI50; key: O=C(Nc1cccc(Cl)c1)Nc1nc2ccc([N+](=O)[O-])cc2s1 ; value = 1260 nM
